Reference source: patent US7964607B2

Molecular target: human recombinant PDE9 enzyme (Homo sapiens, UniProt O76083)
Construct: made in house; host or cells: SF-9 insect cells
Sequence (O76083 whole entry): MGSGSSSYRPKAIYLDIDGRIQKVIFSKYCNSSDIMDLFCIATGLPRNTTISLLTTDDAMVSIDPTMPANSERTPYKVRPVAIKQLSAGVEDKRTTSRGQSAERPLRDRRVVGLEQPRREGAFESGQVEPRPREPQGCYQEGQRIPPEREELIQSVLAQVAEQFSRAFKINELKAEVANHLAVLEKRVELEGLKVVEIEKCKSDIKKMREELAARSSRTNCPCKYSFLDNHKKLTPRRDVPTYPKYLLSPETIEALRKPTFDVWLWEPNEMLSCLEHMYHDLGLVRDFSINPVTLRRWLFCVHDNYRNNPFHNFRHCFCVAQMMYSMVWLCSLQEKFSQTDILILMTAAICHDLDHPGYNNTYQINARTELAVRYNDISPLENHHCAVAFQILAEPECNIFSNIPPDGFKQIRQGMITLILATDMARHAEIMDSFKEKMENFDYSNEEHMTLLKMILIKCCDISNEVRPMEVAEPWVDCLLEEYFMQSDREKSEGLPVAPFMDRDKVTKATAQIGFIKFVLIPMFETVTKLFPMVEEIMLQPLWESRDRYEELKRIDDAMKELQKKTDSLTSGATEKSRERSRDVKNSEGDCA
Test: Phosphodiesterase 9 (PDE9) inhibitory activity, Scintillation Proximity (SPA) assay
Type: biochemical
MEASUREMENT_LABEL: IC50 (nM)

Consider the reported IC50 for these molecules:
- MOLECULE: "Cc1cnc(CN2C[C@@H](C)[C@H](c3nc4c(cnn4C4CCOCC4)c(=O)[nH]3)C2)cn1"
  TESTED_ON: "human recombinant PDE9 enzyme (Homo sapiens, UniProt O76083)"
  ASSAY_RESULT: 5.46
- MOLECULE: "CC[C@@H]1CN(Cc2ccccc2)C[C@H]1c1nc2c(cnn2C2CCOCC2)c(=O)[nH]1"
  TESTED_ON: "human recombinant PDE9 enzyme (Homo sapiens, UniProt O76083)"
  ASSAY_RESULT: 5.56
- MOLECULE: "C[C@@H]1CN(Cc2ccccc2F)C[C@H]1c1nc2c(cnn2C2CCOCC2)c(=O)[nH]1"
  TESTED_ON: "human recombinant PDE9 enzyme (Homo sapiens, UniProt O76083)"
  ASSAY_RESULT: 7.93
- MOLECULE: "C[C@@H]1CN(Cc2ccccc2)C[C@H]1c1nc2c(cnn2C2CCOCC2)c(=O)[nH]1 (racemic) [Example 60]"
  TESTED_ON: "human recombinant PDE9 enzyme (Homo sapiens, UniProt O76083)"
  ASSAY_RESULT: 44.8
- MOLECULE: "C[C@@H]1CN(Cc2ccccc2)C[C@H]1c1nc2c(cnn2C2CCOCC2)c(=O)[nH]1 [Example 61]"
  TESTED_ON: "human recombinant PDE9 enzyme (Homo sapiens, UniProt O76083)"
  ASSAY_RESULT: 7.35

(a) CCC1CN(Cc2ccccc2)CC1c1nc2c(cnn2C2CCOCC2)c(=O)[nH]1 (racemic)
(b) C[C@@H]1CN(Cc2cccc(F)c2)C[C@H]1c1nc2c(cnn2C2CCOCC2)c(=O)[nH]1
Which is greater in IC50, the first item a or the second item b ? Please respond with the label that marks your chosen entry.
a

---

Molecular target: human recombinant PDE9 enzyme (Homo sapiens)
Construct: made in house; host or cells: SF-9 insect cells
Experiment: Phosphodiesterase 9 (PDE9) inhibitory activity, Scintillation Proximity (SPA) assay
Type: biochemical
Settings: human recombinant PDE9 from SF-9 cells; 50 nM [3H]cGMP; room temperature, 30 min; additional compounds Ex. 115-228; read-out: G5678A (U):IC50
MEASUREMENT_LABEL: IC50 (µM)

- COMPOUND: "Cc1cccc(CN2C[C@@H](C)[C@H](c3nc4c(cnn4C4CCCC4)c(=O)[nH]3)C2)c1 (racemic)"
  IC50 (µM): 0.0434

(1) COc1ccc(F)c(CN2C[C@@H](C)[C@H](c3nc4c(cnn4C4CCCC4)c(=O)[nH]3)C2)c1 (racemic)
(2) COc1ccc(C)cc1CN1C[C@@H](C)[C@H](c2nc3c(cnn3C3CCCC3)c(=O)[nH]2)C1 (racemic)
(3) C[C@@H]1CN(Cc2c(F)cccc2F)C[C@H]1c1nc2c(cnn2C2CCCC2)c(=O)[nH]1 (racemic)
(4) C[C@@H]1CN(Cc2cc(Cl)ccc2Cl)C[C@H]1c1nc2c(cnn2C2CCCC2)c(=O)[nH]1 (racemic)
(5) C[C@@H]1CN(Cc2ccc3nsnc3c2)C[C@H]1c1nc2c(cnn2C2CCCC2)c(=O)[nH]1 (racemic)
Please list these in order of increasing IC50. Thank you! Note for the reader: the ranking is given by listing the labels in the order requested.
5, 3, 2, 1, 4
(5: 0.00713 µM, 3: 0.0162 µM, 2: 0.025 µM, 1: 0.0547 µM, 4: 0.0809 µM)

(a) C[C@@H]1CN(Cc2cccc(Cl)c2F)C[C@H]1c1nc2c(cnn2C2CCCC2)c(=O)[nH]1 (racemic)
(b) C[C@@H]1CN(CCCC(F)(F)F)C[C@H]1c1nc2c(cnn2C2CCCC2)c(=O)[nH]1 (racemic)
Please compare: a and b . Report which one has the smaller IC50 value. Return value: the label identifying the chosen record.
a

(1) C[C@@H]1CN(Cc2cc(Cl)cc(Cl)c2)C[C@H]1c1nc2c(cnn2C2CCCC2)c(=O)[nH]1 (racemic)
(2) C[C@@H]1CN(Cc2ccc(-n3ccnc3)cc2)C[C@H]1c1nc2c(cnn2C2CCCC2)c(=O)[nH]1 (racemic)
Please tell me which of the two, 1 or 2 , has the higher reported IC50 value. Choose, then provide that item's label.
1
(1: 0.0709 µM, 2: 0.0393 µM)
